# Test: endothelial E-selectin expression blockers – imaging, HUVEC, immunofluorescence, MLSMR starter and 10KST1 sets, primary screen (AID 487);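 further: 100% = median nuclei count of all wells on the same plate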
# Condition set: HUVEC TNFalpha-induced E-selectin immunofluorescence imaging, at 2 µM; measured here: cell number, toxicity
Result type: nuclei count (%)
Answer format: numeric, % implied, no suffix.

Some solved cases for reference:
In [3]: df
Out[3]:
                                   molecule   result_type  unit_annotation  assay_value
0  CCOC(=O)c1cccc(NC(=O)CSc2nnc(-c3cccnc3)n2CC)c1  nuclei count                %          112
1  CN(C)CCCNC(=O)c1ccc(CN(c2ccccc2)S(C)(=O)=O)cc1  nuclei count                %         84.7
2  COc1ccc(NC(=O)C(C)NS(=O)(=O)c2ccc(NC(C)=O)cc2)cc1Cl (stereo unspecified)  nuclei count                %          113

stdin: Requested read-out: nuclei count. Entry: c1ccc(Cn2nnnc2C(c2cccs2)N2CCSCC2)cc1 (stereo unspecified)
stdout: 95.9

stdin: Requested read-out: nuclei count. Entry: O=C(O)C1C2CCC(O2)C1C(=O)NCCC1=CCCCC1 (stereo unspecified)
stdout: 117

stdin: Requested read-out: nuclei count. Entry: COC(=O)[C@H](C)NC(=O)NCc1ccc(F)cc1
stdout: 96.1

stdin: Requested read-out: nuclei count. Entry: CCOCCCNC(=O)Cn1cc2c(n1)CCCCC2
stdout: 109

stdin: Requested read-out: nuclei count. Entry: COc1cc2c(cc1OC)CN(C(=O)COc1ccc(C)c(C)c1)CC2
stdout: 106

stdin: Requested read-out: nuclei count. Entry: COc1ccccc1NC(=O)C(C)NS(=O)(=O)c1ccc(F)cc1 (stereo unspecified)
stdout: 100

stdin: Requested read-out: nuclei count. Entry: C=CCn1c(SC(C)C(=O)NC2(C#N)CCCCC2)nnc1-c1ccc(OC)cc1 (stereo unspecified)
stdout: 94

stdin: Requested read-out: nuclei count. Entry: CC(=O)NC(C)c1nc2ccccc2n1C(C)C (stereo unspecified)
stdout: 121

stdin: Requested read-out: nuclei count. Entry: Cc1ccc(Nc2nc(N)nc(CN3CCCCCC3)n2)cc1
stdout: 88.8

stdin: Requested read-out: nuclei count. Entry: O=C1C2CC=C(Cl)CC2C(=O)N1c1ncn[nH]1 (stereo unspecified)
stdout: 113

stdin: Requested read-out: nuclei count. Entry: Cc1cc(=O)[nH]c(=S)n1-c1ccccc1
stdout: 103

stdin: Requested read-out: nuclei count. Entry: CC1=C(C(=O)OCc2ccccc2)C(c2ccc(C)o2)C2=C(CCCC2=O)N1 (stereo unspecified)
stdout: 97

stdin: Requested read-out: nuclei count. Entry: CS(=O)(=O)NCC(c1cccnc1)N1CCN(c2ccc(F)cc2)CC1 (stereo unspecified)
stdout: 72.4

stdin: Requested read-out: nuclei count. Entry: Cc1oc(C(=O)O)cc1CSCc1cc(C(=O)O)c(C)o1
stdout: 118

stdin: Requested read-out: nuclei count. Entry: COCc1[nH]nc2c1C(c1cc(OC)c(O)c(OC)c1)C(C#N)=C(N)O2 (stereo unspecified)
stdout: 117

stdin: Requested read-out: nuclei count. Entry: COC(=O)CCC(=O)Nc1ccc(S(=O)(=O)N2CCCCCC2)cc1
stdout: 116

stdin: Requested read-out: nuclei count. Entry: Cc1cc(C(=O)CSc2nc3ccccc3[nH]2)c(C)n1C
stdout: 123

stdin: Requested read-out: nuclei count. Entry: COc1ccccc1N(CC(=O)Nc1cccnc1)S(C)(=O)=O
stdout: 34.6

stdin: Requested read-out: nuclei count. Entry: COc1ccc(OC)c(S(=O)(=O)N2CCC(C(=O)NCC3CCCO3)CC2)c1 (stereo unspecified)
stdout: 115

meta.source: PubChem BioAssay
